- Tested on: TNBS-induced ulcerative colitis model mice
- PROTOCOL DETAILS: TNBS-induced mice ulcerative colitis model
- Assay type: in vivo, BALB/c male mice
- CONDITION CONTEXT: 24 hours after last administration; ig 7 days; compound 20 mg/kg, sulfasalazine 500 mg/kg
Listing of recorded Weight of the colon by entry.
I only need the number, in g, no unit after it.

stdin: I'd like to know its Weight of the colon. The molecule in question is Cc1sc(N/N=C/c2ccccc2C(=O)O)nc1-c1ccccc1Cl [Compound 15]
stdout: 0.163

stdin: Which Weight of the colon is reported for this molecule? CN(/N=C/c1ccc(F)cc1C(=O)O)c1nc(-c2ccccc2Cl)cs1 [Compound 10]
stdout: 0.162

stdin: Recorded Weight of the colon of CCCN(/N=C/c1ccccc1C(=O)O)c1nc(-c2ccccc2Cl)cs1 [Compound 3] , please.
stdout: 0.159

stdin: If you can, please state the reported Weight of the colon value of Cc1ccc(/C=N/Nc2nc(-c3ccccc3Cl)cs2)c(C(=O)O)c1 [Compound 9-1] .
stdout: 0.152

* * *

Reported Length of the colon is given for each of the following compounds.
- Test system: TNBS-induced ulcerative colitis model mice
- PROTOCOL DETAILS: TNBS-induced mice ulcerative colitis model
- Type: in vivo, BALB/c male mice
- CONDITION CONTEXT: 24 hours after last administration; ig 7 days; compound 20 mg/kg, sulfasalazine 500 mg/kg
Reply with just the number (in cm).

These recorded examples may help you get a feel for the data.
Cc1sc(N(C)/N=C/c2ccccc2C(=O)O)nc1-c1ccccc1 ... 5.075
O=C(O)c1cc(/N=N/c2ccc(S(=O)(=O)Nc3ccccn3)cc2)ccc1O [sulfasalazine, reference compound] ... 5.814
Cc1sc(N/N=C/c2ccccc2C(=O)O)nc1-c1ccccc1Cl ... 5.546

# input for lookup
stdin: Return reported Length of the colon; argument: O=C(O)c1ccccc1/C=N/Nc1nc(-c2cc(Cl)ccc2Cl)cs1
stdout: 5.675

Values were extracted from patent US20190290620A1.
